Experiment summary: Toxicity against LPS-stimulated human THP1 cells assessed as cell viability at 10 uM incubated for 24 hrs by propidium iodide staining based flow cytometry relative to control
Parameters: species or system THP-1
Condition details: read-out: Activity
So I've got a bunch of compounds here, and I need their viability at 24 h, 10 µM values.
Field: numeric (%). Do not append units.

// query Give reported viability at 24 h, 10 µM value for COc1ccc2c(c1)[nH]c1c2cc[n+]2nc(C)c(C)cc12.[Br-]
// result 61.3

// query Please report viability at 24 h, 10 µM for the following compound: C#CCCCn1c2cc(OC)ccc2c2cc[n+]3nc4c(cc3c21)-c1cccc2cccc-4c12.Cc1cc(C)cc(CS(=O)(=O)[O-])c1
// result 0

// query Write down viability at 24 h, 10 µM measured for item CCOC(=O)Cn1c2cc(OC)ccc2c2cc[n+]3nc(CC)c(CC)cc3c21.Cc1cc(C)cc(CS(=O)(=O)[O-])c1
// result 89.7

// query // Input: CCc1cc2c3[nH]c4ccc(Br)cc4c3cc[n+]2nc1CC.Cc1cc(C)cc(CS(=O)(=O)[O-])c1 . Output its viability at 24 h, 10 µM only.
// result 3.76

// query Tell me its viability at 24 h, 10 µM given Cc1cc(C)cc(CS(=O)(=O)[O-])c1.O=C(O)Cn1c2ccccc2[n+]2nc3c(cc12)-c1cccc2cccc-3c12 as the entry.
// result 69.9

// query Return the recorded viability at 24 h, 10 µM value; entry: CCc1cc2c3[nH]c4c([N+](=O)[O-])cccc4c3cc[n+]2nc1CC.Cc1cc(C)cc(CS(=O)(=O)[O-])c1
// result 79.4

// query Item CCc1cc2c3c(cc[n+]2nc1CC)c1ccc(OC)cc1n3CCCI.[I-] : provide viability at 24 h, 10 µM
// result 63.3

// query Look up viability at 24 h, 10 µM of CCc1cc2c3c(cc[n+]2nc1CC)c1ccc(OC)cc1n3CC(=O)O.Cc1cc(C)cc(CS(=O)(=O)[O-])c1 and report it.
// result 93

// query Consider the compound CCc1cc2c3c(cc[n+]2nc1CC)c1ccc(OC)cc1n3CCCC#CC#CCCCn1c2cc(OC)ccc2c2cc[n+]3nc(CC)c(CC)cc3c21.Cc1cc(C)cc(CS(=O)(=O)[O-])c1.Cc1cc(C)cc(CS(=O)(=O)[O-])c1 and give its recorded viability at 24 h, 10 µM.
// result 9.54

// query Tell me viability at 24 h, 10 µM reported for CCc1cc2c3c(cc[n+]2nc1CC)c1ccc(OCc2ccccc2)cc1n3C(=O)OC(C)(C)C.Cc1cc(C)cc(CS(=O)(=O)[O-])c1
// result 33

// query Give a short answer stating reported viability at 24 h, 10 µM for CCc1cc2c3[nH]c4c(N)cccc4c3cc[n+]2nc1CC.Cl.Cl .
// result 65

// query Entry Cc1cc(C)cc(CS(=O)(=O)[O-])c1.O=C(O)CCCn1c2ccccc2[n+]2nc3c(cc12)-c1cccc2cccc-3c12 needs its viability at 24 h, 10 µM filled in; supply it.
// result 86

// query // fetch viability at 24 h, 10 µM given entry CN(C)CCC[N+](C)(C)CCCn1c2ccccc2[n+]2nc3c(cc12)-c1cccc2cccc-3c12.[Br-].[Br-]
// result 25.3

// query Quickly give me recorded viability at 24 h, 10 µM for C#CCCCn1c2cc(OC)ccc2c2cc[n+]3nc(-c4ccco4)c(-c4ccco4)cc3c21.Cc1cc(C)cc(CS(=O)(=O)[O-])c1
// result 0
